The values you see were collected from patent US20220177587A1.

# SYSTEM: human PD-L1 (human) (UniProt Q9NZQ7)
# Sequence (Q9NZQ7 19-290): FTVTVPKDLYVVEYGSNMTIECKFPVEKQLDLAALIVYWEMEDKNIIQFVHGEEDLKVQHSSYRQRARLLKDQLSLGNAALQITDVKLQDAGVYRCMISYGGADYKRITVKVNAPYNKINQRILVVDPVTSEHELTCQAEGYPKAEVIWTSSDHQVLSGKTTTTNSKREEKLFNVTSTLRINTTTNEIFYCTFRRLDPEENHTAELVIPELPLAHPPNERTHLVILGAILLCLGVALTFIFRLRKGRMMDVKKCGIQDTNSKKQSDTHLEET
# PROTOCOL_DETAILS: flow cytometry, CHO cells expressing huPD-L1
MEASUREMENT_TYPE: MFI at 33.3 nM (MFI)

Look over these answered cases.
variant CD80 IgV-Fc E35D/M47V/K89N (Fc fusion) VIHVTKEVKEVATLSCGHNVSVEELAQTRIYWQKDKKMVLTMMSGDVNIWPEYKNRTIFDITNNLSIVILALRPSDEGTYECVVLKYENDAFKREHLAEVTLSVKAD :: 4340
variant CD80 IgV-Fc A26E/Q33L/E35D/M47L (Fc fusion) VIHVTKEVKEVATLSCGHNVSVEELEQTRIYWLKDKKMVLTMMSGDLNIWPEYKNRTIFDITNNLSIVILALRPSDEGTYECVVLKYEKDAFKREHLAEVTLSVKAD :: 60900

(I) variant CD80 IgV-Fc M47V/N48K/V68M (Fc fusion) VIHVTKEVKEVATLSCGHNVSVEELAQTRIYWQKEKKMVLTMMSGDVKIWPEYKNRTIFDITNNLSIMILALRPSDEGTYECVVLKYEKDAFKREHLAEVTLSVKAD
(II) variant CD80 IgV-Fc M47V (Fc fusion) VIHVTKEVKEVATLSCGHNVSVEELAQTRIYWQKEKKMVLTMMSGDVNIWPEYKNRTIFDITNNLSIVILALRPSDEGTYECVVLKYEKDAFKREHLAEVTLSVKAD
Exam item: Of the pair I and II , name the member with the lesser recorded MFI at 33.3 nM. I would appreciate it if you answered with the label of your choice.
Marked response: II
